assay: yeast display, Sf9 membrane polyspecificity reagent, FACS + sequencing; frameworks hold sequencing errors

{"columns": ["CHAIN SEQUENCE", "polyreactivity (PSR sort gate)"],
 "data": [
  ["QVQLVESGGGLVQAGGSLRLSCAASGRTFGYYAMGWYRPEHGTERELVAAITRTGGSTHYADSVKGRFTISRDNAKNTVYLQMNSLKPEDTAVYYCARDYRYTIPYDYWGQGTQVTVSS", "low polyreactivity"],
  ["QVQLVESGGGLVQAGGSLRLSCDASGSTFVHYAMGWYRQAPGKERQLVAAISSSGDSTYYADSVKGRFTISRDNAKNTVYLKMNSLKPEDTAVYYCAVRSRTPRAYYYWGQGTQVTVSS", "low polyreactivity"],
  ["QVQLVGVRGRLVQAGGSLRLSCAASGRTIYAYAMGWNRQAPRKERELVATITSGGSTNYADSVKGRFTISRDNAMNTFYLLMNSLKPEDTAVYYCGAGPRGYKKYDYWGHGTQVTVSS", "low polyreactivity"],
  ["QVQLQECGGGLVQAGGSLRLSCAASVNIFDADIMGWYRQAPGKERELVASVTDGGSTNYADSVKGRFTISRDNAKNTVYLQMNSLKPEDTAVYYCAAIVYPDILTYFEYDYDYFYWGQGTQVTVGS", "low polyreactivity"]
]}

----------
experiment: yeast display, Sf9 membrane polyspecificity reagent, FACS + sequencing; frameworks hold sequencing errors

{"columns": ["CHAIN SEQUENCE", "polyreactivity (PSR sort gate)"],
 "data": [
  ["QVQLVESGGGLVQAGGSLRLSCAASGRTFVRNAMAWYRQAPGKERELVAAITYGGGNTYYADSVKGRFTISRDNAKNTVYLQMNSLKPEDTAVYYCAKRRLYWSGQGWVRTYGYWGQGTQVTVSS", "high polyreactivity"],
  ["QVQLVESGGGLVQAGGSLRLSCAASGSTLRGYTMGWYRQAPGKERELVAAISWSGASTYYADSVKGRFTISRDNAKNTVYLQMNSLKPEDTAVYYCNRAGRYVREYTVDYWGQGTQVTVSS", "high polyreactivity"]
]}

----------
assay: yeast display, Sf9 membrane polyspecificity reagent, FACS + sequencing; frameworks hold sequencing errors

{"columns": ["CHAIN SEQUENCE", "polyreactivity (PSR sort gate)"],
 "data": [
  ["QVQLVESGGGLVQAGGSLRLSCAASGLTFWAYFMGWYRQAPGKEREFVAAITLSSGSTYYADSVKGRFTISRDNEKNTVYLQMNSLKPEYTAVYYCAATRDYGYWMYSWGQGTQGTVSS", "high polyreactivity"],
  ["QVQLVESGGGLVQAGGSLRLSCAASGRILGWNAMGWYSPAPGKVRELVAGISSSGGSTYYADSVKGRFTISRHNAKNTVNIQMNSLKPEDTAVYYCAAVVWLSSANRRYYYWGQGTQVTVSS", "high polyreactivity"]
]}

----------
test: yeast display, Sf9 membrane polyspecificity reagent, FACS + sequencing; frameworks hold sequencing errors

{"columns": ["CHAIN SEQUENCE", "polyreactivity (PSR sort gate)"],
 "data": [
  ["QVQLVETGGGLVQAGGSLRLSCAASGSIFDGYAMGWYRQAPGKERDFVASIRFSTARTYYADSVKGRFTISRDNAKNTVYLQMNSLKPEDTAVYYCNAPQGFVWRYSSWGPYDYWGQGTQVTVSS", "high polyreactivity"],
  ["QVQLVESGGGLVQAGGSLRLSCAASGRIFPGYAMGWYRQAPGKEREFVAAITASGGTTYYADSVKGRFTISRDNAKNTVYLQMNSLKPEDTAVYYCAVYDWRYYLGKLMEYWGQGTQVTVSS", "high polyreactivity"]
]}

----------
assay: yeast display, Sf9 membrane polyspecificity reagent, FACS + sequencing; frameworks hold sequencing errors
MEASURE NAME: polyreactivity (PSR sort gate)

Some entries whose results are on file:
{"columns": ["CHAIN SEQUENCE", "polyreactivity (PSR sort gate)"],
 "data": [
  ["QVQLVESGGGLVQAGGSLRLSCAASGSIFYVNTMGWYRQAPGKERELVAAISDSSGGTYYADSVKGRFTISRDNAKNTVYLQMNSLKPEDPAVYYCARDSTSHYDSGPYSSPFDYWGQGTQVTVSS", "low polyreactivity"],
  ["QVQLVESGGGLVQAGGSLRLSCAASGRTFRYNAMGWYRQAPGKERELVAAISGRGSSTYYSDSVKGRFTISRDNAKNTVYLQMNSLTPEDTAVYYCAALPASVRRPAWHDYWGQGTQVTVSS", "high polyreactivity"],
  ["QVQLVESGGGLDQAGGSLRLSCAASGSIFTDNAMGWYRQAPGKERELVASITIAGSTKYADSVKGRFTISRDNAKKTVYLQMNSLKPEDTAVYYCNAEASDLHDYWGQGTQVTVSS", "low polyreactivity"],
  ["QVQLVESGGGLVQAGGSLRLSCAASGINFIYNAMGWYRQAPGKERELVATISRRGGSTYYADSVKGRFTISRDNAKNTVYLQMNSLKPEVTAVYYSARDVGAGSKISRLSSYNYWGQGTQVTVSS", "low polyreactivity"]
]}

Tell me its polyreactivity (PSR sort gate) given QVQLVESGGGLVQAGGSLRLSCAASGRIFGQYAMGWYRQAPGKERELVAAISWRGGTTYYADSVKGRITISRDKAKNTVYLQMNSLKPVDTAVYYCNADVWVYPYDYWGQGTQVTVSS as the entry.
low polyreactivity

Tell me its polyreactivity (PSR sort gate) given QVQLVESGGGLVQAGGSLRLSCAASGFIFRRYAMGWSRPAPGNERELVAAITWSGGSTYYADSVKGRFTISRDNAKNTVYLQMNSLKPEDTAVYYCAAVYRQSGDYYSRDYYWGQGTQVTVSS as the entry.
high polyreactivity

Tell me its polyreactivity (PSR sort gate) given QVQLVESGGGLVQAGGSLRLSCAASGIIFGGYAMGWYRQAHGKERELVARITSGGSTNYADSVKGRFTISRDNAKNTVYLQMNSLKPEDTAVYYCNARGGWSWRFYYWGQGTQVTVSS as the entry.
high polyreactivity

Tell me its polyreactivity (PSR sort gate) given QVQLVESGGGLDQAGGSLRLSCAASGSTFGWYAMGWYIQAPGTERELVAAINSSGGTTYYADSVKGLFTISRDNAMNTVYLQMNSLKPEDTAVHYCAARQVYSVGKDTRSVGYWGQGTQVTGSS as the entry.
low polyreactivity

Tell me its polyreactivity (PSR sort gate) given QVQLLESGRGLVQAGGSLRLSCAPSGSIFSGMVMGWYIQAPGKERELVAAISSRGGNTYYADSVKGRFTISRDNAKNTVYLQMNSLITEDTAVYYCNKVKFNWYEWGQGTQVSVSS as the entry.
high polyreactivity

Tell me its polyreactivity (PSR sort gate) given QVQLVESGAGLVQAGGSLRLSCAASVSIFDIYAMGWYRQAPGKERELVADISWSGGSTYYADSVKGRFTISRDNAKNSVYLQMNSLKPEDTAVFDCAAELYGFTVDPGDYWGQGTQVTVSS as the entry.
low polyreactivity

Tell me its polyreactivity (PSR sort gate) given QVQLVESGGGLVQEGGSLRLSCAASGRIFATYVMGWYRQAPGKERELVAAISRRGSSTYYADSVKGRFTISRDNAKNTVYLQMNSLKPEDTAVYYCAAVHKVGWSRHYDYWGLGTQVTVSS as the entry.
high polyreactivity

----------
assay: yeast display, Sf9 membrane polyspecificity reagent, FACS + sequencing; frameworks hold sequencing errors
MEASURE NAME: polyreactivity (PSR sort gate)

{"columns": ["CHAIN SEQUENCE", "polyreactivity (PSR sort gate)"],
 "data": [
  ["QVQLVESGGGLVQAGGSLRLSCAASGFIFASNAMGWYRQEPGKERELVASITIGDSTYYADSVKGRFTISRDNAKNTVYLQMNSLKPEDTAVYYCAAVKTVDVGYDYWGQGTQVTVSS", "low polyreactivity"],
  ["QFQLVESGGGLVQAGGSLRLSCAASGSIFTLYDMGWYRQAPGNERELVAAISSGGGSTYYADSVKGRFTISRDNAKNTVYLQMNSLKPEDTAVYYCAARNRRAKYGDWGQGTQVTVSS", "high polyreactivity"],
  ["QVQLVESGGGLVQAGGSLRLSCAASGSIFVWYDMGWYRQAPGKERELVATISLSGVSTYYADSVKGRFTISRDNAKNPVYLQLNSLKPEDTAVYYCAADFVEQGEDDYWGQGTQVTVSS", "low polyreactivity"],
  ["QVQLVESGGGLVQAGGSLRLSCAASGRTFPWYAMGWYRQAPGKERELVADITWSGGSTYYADSVKGRFTISRDNAKNTVYLQMNSLKPEDTAVYYCATRVLFWYRKYPGRPLTKYDYWGQGTQVTVSS", "high polyreactivity"],
  ["QVQLVESGGGLVQAGGSLRLSCAATGRIFTYYAMGWYRQAPGKERELVAGISGSGTSTYYADSVKARFTISRDNAKNTVDLQINSLKPEDTAVYYSAADVFRDDVWLDYWGQGTQVTVSS", "low polyreactivity"],
  ["QVQLVESGGGLVQAGGSLRLICAASGSIFYRYAMGWYRQAPGKERELVAAISSNGVSTYYADSVKGRFTISRDNAKNTVYLQMNSLKPEDTAVYYCARDVYASPRLYTSRYNYWGQGTQVTVSS", "low polyreactivity"],
  ["QVQLVESGGGLVQAGGSLRLSCAASGRTFSRNAMGWYRQAPGKERELVAAISDGGGSTYYADSVKGRFTISRDNAKNPVYLQMNILKPEDTAVYYCAARVLDWRGDIHDSEYWGHGTQVTVSS", "low polyreactivity"],
  ["QVQLVESGGGLVQAGGSLRLSCAASGRTFKWYAMGWYRQAPGKERELVAAISSSGSTYYADSVKGRFTISRDNAKNTVYLQMNSLKPEDTAVYYCAVLRRYLVGNLVGYNYWGQGTQVTVSS", "high polyreactivity"],
  ["QVQLVESGGGLVQAGGSLRLSCAASGSTFGTYAMGWYRQAPGKERELVAAITSGDNTYYADSVKGRFTISRDNAKNTVYLPMNSLKPEDTAVYYCAKDYNRYYWPWVIRGYDYWGQGTHVTVSS", "low polyreactivity"],
  ["QVQLVESGGGLDQAGGSLRLICAASGLTFYLYAMGWYRQAPGKERELVAAISTRGGSTRYADSVKGRFTISRDNAKNTVYLQMNSLKPEDTAVFDCNAVSKWLEYDYWGQGTQVTVSS", "high polyreactivity"]
]}

Read the next record carefully.
Tell me its polyreactivity (PSR sort gate) given QVQLVESVGGLVQEGGSLRLSCAASGSNFQWYAMGWYRQAPGKERELVAAIRYSGDSTYYADSVKGRFTISRDNAKNTDYLQMNSLKPEDTAVYYCAAEATTRWLLYNYWGQGTQVTVSS as the entry.
high polyreactivity
